B1: Transitional endoplasmic reticulum ATPase, residues 26 to 106; numbered along this chain, P55072 (parent)
chain: LIVDEAINEDNSVVSLSQPKMDELQLFRGDTVLLKGKKRREAVCIVLSDDTCSDEKIRMNRVVRNNLRVRLGDVISIQPCP

variants of: B1; experiment: abundance fitness (aPCA) (normalised: wild type 0, dead -1); higher = more abundant; growth selection in yeast, the domain comes from the species named; conditions: Homo sapiens
Would you mind labelling by abundance fitness? At or over -0.08 is yes (1), under is no (0).

abundance fitness >= -0.08 for "N65E" ? yes (1)

abundance fitness >= -0.08 for "P19Y" ? yes (1)

abundance fitness >= -0.08 for "P19N" ? no (0)

abundance fitness >= -0.08 for "S76P" ? no (0)

abundance fitness >= -0.08 for "R68T" ? no (0)

abundance fitness >= -0.08 for "C44E" ? no (0)

abundance fitness >= -0.08 for "C80L" ? yes (1)

abundance fitness >= -0.08 for "V32I" ? yes (1)

abundance fitness >= -0.08 for "R39T" ? yes (1)

abundance fitness >= -0.08 for "R61M" ? no (0)

abundance fitness >= -0.08 for "N8F" ? no (0)

abundance fitness >= -0.08 for "A42G" ? no (0)

abundance fitness >= -0.08 for "V43T" ? yes (1)

abundance fitness >= -0.08 for "I77S" ? no (0)

abundance fitness >= -0.08 for "R61A" ? yes (1)

abundance fitness >= -0.08 for "R64T" ? no (0)

abundance fitness >= -0.08 for "R39F" ? yes (1)

abundance fitness >= -0.08 for "G36V" ? no (0)

abundance fitness >= -0.08 for "V13Y" ? yes (1)

abundance fitness >= -0.08 for "R28A" ? yes (1)

abundance fitness >= -0.08 for "D30C" ? yes (1)

abundance fitness >= -0.08 for "S48N" ? yes (1)

abundance fitness >= -0.08 for "V63K" ? no (0)

abundance fitness >= -0.08 for "R61G" ? yes (1)

abundance fitness >= -0.08 for "K56M" ? no (0)

abundance fitness >= -0.08 for "C52Q" ? yes (1)

abundance fitness >= -0.08 for "F27P" ? no (0)

abundance fitness >= -0.08 for "I2R" ? no (0)

abundance fitness >= -0.08 for "D49A" ? no (0)

abundance fitness >= -0.08 for "L24I" ? no (0)

abundance fitness >= -0.08 for "L24M" ? no (0)

abundance fitness >= -0.08 for "R61Q" ? yes (1)

abundance fitness >= -0.08 for "L67V" ? no (0)

abundance fitness >= -0.08 for "L33Q" ? no (0)

abundance fitness >= -0.08 for "I57W" ? no (0)

abundance fitness >= -0.08 for "K35N" ? yes (1)

abundance fitness >= -0.08 for "V13N" ? no (0)

abundance fitness >= -0.08 for "E55L" ? yes (1)

abundance fitness >= -0.08 for "L33G" ? no (0)

abundance fitness >= -0.08 for "K37G" ? yes (1)

abundance fitness >= -0.08 for "R68V" ? no (0)

abundance fitness >= -0.08 for "Q25G" ? yes (1)

abundance fitness >= -0.08 for "K56F" ? no (0)

abundance fitness >= -0.08 for "K37E" ? yes (1)

abundance fitness >= -0.08 for "L16C" ? no (0)

abundance fitness >= -0.08 for "E5I" ? yes (1)
